- measured_target: Ribose-5-phosphate isomerase B (Mycobacterium tuberculosis, UniProt P9WKD7)
- Sequence (P9WKD7 whole entry): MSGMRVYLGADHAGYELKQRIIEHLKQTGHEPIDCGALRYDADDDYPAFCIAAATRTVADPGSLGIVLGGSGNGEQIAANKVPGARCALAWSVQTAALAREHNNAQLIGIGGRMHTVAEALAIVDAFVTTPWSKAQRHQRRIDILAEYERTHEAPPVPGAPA
- test_description: Competitive inhibition of Mycobacterium tuberculosis RPIB using D-ribose-5-phosphate as substrate by spectrophotometric analysis
measurement_name: IC50 (µM)
// return numeric value only (unit: µM, not printed)

Tell me its IC50 given O=C(O)[C@@H](O)[C@@H](O)[C@@H](O)COP(=O)(O)O (single isomer, unassigned) as the entry.
31

* * *

# key: entry, value: IC50
- measured_target: ribose-5-phosphate isomerase (Spinacia oleracea, UniProt Q8RU73)
- Sequence (Q8RU73 whole entry): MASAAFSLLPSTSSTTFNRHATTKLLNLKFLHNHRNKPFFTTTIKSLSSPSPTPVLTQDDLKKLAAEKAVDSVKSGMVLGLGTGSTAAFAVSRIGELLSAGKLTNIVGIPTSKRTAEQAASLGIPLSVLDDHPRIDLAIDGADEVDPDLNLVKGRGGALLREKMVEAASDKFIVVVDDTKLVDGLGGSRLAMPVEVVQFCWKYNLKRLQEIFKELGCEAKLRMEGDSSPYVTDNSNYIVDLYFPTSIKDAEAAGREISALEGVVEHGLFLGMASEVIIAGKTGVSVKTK

Some solved cases for reference:
compound	recorded_measurement
CC(C(C(=O)O)C(=O)O)[C@@H](O)[C@@H](O)[C@@H](O)CCP(=O)(O)O (stereo partly drawn)	> 1500 µM
CC(C(C(=O)O)C(=O)O)[C@@H](O)[C@@H](O)[C@@H](O)CCC(=O)O (stereo partly drawn)	> 1500 µM

Here is the next item to consider.
Under ribose-5-phosphate isomerase (Spinacia oleracea, UniProt Q8RU73): report IC50 of O=P(O)(O)CC[C@H]1OC(O)[C@H](O)[C@@H]1O (stereo partly drawn) .
> 3000 µM

Data origin, for the record: ChEMBL document CHEMBL5579804
